Assay: Mouse PK, intravenous dosing
Type: in vivo
Conditions: intravenous 2 mg/kg, total body clearance from whole blood
The reader will find reported CLb values listed item by item below.
parameter: CLb

| smiles | parameter | observed-measurement |
| --- | --- | --- |
| CS(=O)(=O)NC(=O)NCc1cn(-c2ccc(Cl)cc2)nc1-c1ccncc1 | CLb | > 12 L/h/kg |
| CS(=O)(=O)NC(=O)CCc1cn(-c2ccc(Br)cc2)nc1-c1ccncc1 | CLb | > 12 L/h/kg |
| CS(=O)(=O)NC(=O)OCc1cn(-c2ccc(Cl)cc2)nc1-c1ccncc1 | CLb | > 12 L/h/kg |
| CS(=O)(=O)NC(=O)CCc1cn(-c2ccc(Br)cc2)nc1-c1ccc(Cl)cc1 | CLb | 0.0708 L/h/kg |

Values compiled from paper PMC10500703.
